# assay.protocol: Cmax in Lewis rat at 10 mg/kg, po
# Type: ADME, organism-based
# Design: dose 10 mg/kg, route oral
# setup.conditions: in vivo
quantity.name: Cmax (µM)
Lab book: enter the figure in µM, no units written.

# input Give its Cmax value. Item: CNc1nc2[nH]c(-c3cccc(CNC(=O)COC)n3)cc2c2c1ncn2C
# output 17.6

* * *

# assay.protocol: AUC in dog at 5 mg/kg, po
# Assay type: ADME, organism-based, Canis lupus familiaris
# Design: dose 5 mg/kg, route oral
# setup.conditions: plasma
quantity.name: AUC (µM·h)
Lab book: enter the figure in µM·h, no units written.

# input Give its AUC value. Item: CNc1nc2[nH]c(-c3cccc(CNC(=O)COC)n3)cc2c2c1ncn2C
# output 50

* * *

# assay.protocol: AUC in SJL mouse plasma at 8 mg/kg, iv after 8 hrs
# Format: ADME, organism-based
# Set-up: time < 8 hr, dose 8 mg/kg, route intravenous
quantity.name: AUC at 8 h (µM·h)
Lab book: enter the figure in µM·h, no units written.

# input Give its AUC at 8 h value. Item: CNc1nc2[nH]c(-c3cccc(CNC(=O)COC)n3)cc2c2c1ncn2C
# output 18

* * *

# assay.protocol: Clearance in Lewis rat at 2 mg/kg, iv
# Assay type: ADME, organism-based
# Parameters: dose 2 mg/kg, route intravenous
# setup.conditions: in vivo
quantity.name: clearance

# input Give its clearance value. Item: CNc1nc2[nH]c(-c3cccc(CNC(=O)COC)n3)cc2c2c1ncn2C
# output 4.5 mL/min/kg

* * *

# subject.of.test: Cytochrome P450 1A2 (Homo sapiens)
# Sequence (P05177 whole entry): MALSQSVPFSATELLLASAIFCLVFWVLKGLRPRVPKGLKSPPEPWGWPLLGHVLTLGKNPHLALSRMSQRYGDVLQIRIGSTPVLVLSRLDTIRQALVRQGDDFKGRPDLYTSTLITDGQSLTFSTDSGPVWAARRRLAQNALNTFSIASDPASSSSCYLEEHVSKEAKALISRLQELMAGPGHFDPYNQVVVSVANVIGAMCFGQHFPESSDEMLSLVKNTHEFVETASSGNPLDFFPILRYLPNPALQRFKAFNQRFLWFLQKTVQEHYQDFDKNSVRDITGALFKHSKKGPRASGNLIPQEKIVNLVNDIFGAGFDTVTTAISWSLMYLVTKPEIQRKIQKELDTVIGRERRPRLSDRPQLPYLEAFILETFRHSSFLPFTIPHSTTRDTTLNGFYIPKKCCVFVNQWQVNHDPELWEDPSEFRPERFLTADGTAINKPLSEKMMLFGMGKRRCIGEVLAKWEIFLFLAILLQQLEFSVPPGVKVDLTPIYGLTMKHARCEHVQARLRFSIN
# assay.protocol: Inhibition of CYP1A2
# Type: ADME
quantity.name: IC50

# input Give its IC50 value. Item: CNc1nc2[nH]c(-c3cccc(CNC(=O)COC)n3)cc2c2c1ncn2C
# output > 40 µM

* * *

# assay.protocol: Half life in mouse at 2 mg/kg, iv
# Type: ADME, organism-based
# Parameters: dose 2 mg/kg, route intravenous
# setup.conditions: in vivo
quantity.name: half-life (min)
Lab book: enter the figure in min, no units written.

# input Give its half-life value. Item: CNc1nc2[nH]c(-c3cccc(CNC(=O)COC)n3)cc2c2c1ncn2C
# output 39.6

* * *

# assay.protocol: Clearance in mouse at 2 mg/kg, iv
# Assay type: ADME, organism-based
# Set-up: dose 2 mg/kg, route intravenous
# setup.conditions: in vivo
quantity.name: clearance (mL/min/kg)
Lab book: enter the figure in mL/min/kg, no units written.

# input Give its clearance value. Item: CNc1nc2[nH]c(-c3cccc(CNC(=O)COC)n3)cc2c2c1ncn2C
# output 52

* * *

# assay.protocol: AUC in Lewis rat at 30 mg/kg, po
# Assay type: ADME, organism-based
# Set-up: dose 30 mg/kg, route oral
# setup.conditions: plasma
quantity.name: AUC (µM·h)
Lab book: enter the figure in µM·h, no units written.

# input Give its AUC value. Item: CNc1nc2[nH]c(-c3cccc(CNC(=O)CCOC)c3)cc2c2c1ncn2C
# output 39

* * *

# assay.protocol: Oral bioavailability in Lewis rat at 10 mg/kg
# Format: ADME, organism-based
# setup.conditions: in vivo
quantity.name: bioavailability (%)
Lab book: enter the figure in %, no units written.

# input Give its bioavailability value. Item: CNc1nc2[nH]c(-c3cccc(CNC(=O)COC)n3)cc2c2c1ncn2C
# output 90

* * *

# assay.protocol: AUC in Sprague-Dawley rat liver at 2 mg/kg, iv after 8 hrs
# Format: ADME, organism-based
# Set-up: time < 8 hr, dose 2 mg/kg, route intravenous
quantity.name: AUC at 8 h (µM·h)
Lab book: enter the figure in µM·h, no units written.

# input Give its AUC at 8 h value. Item: CNc1nc2[nH]c(-c3cccc(CNC(=O)COC)n3)cc2c2c1ncn2C
# output 16

* * *

# assay.protocol: Protein binding in human serum
# Assay type: ADME, cell-free
# setup.conditions: read-out: PB (converted)
quantity.name: fraction unbound
Output: the number by itself.

# input Give its fraction unbound value. Item: CNc1nc2[nH]c(-c3cccc(CNC(=O)COC)n3)cc2c2c1ncn2C
# output 0.074

* * *

# assay.protocol: AUC in Lewis rat at 10 mg/kg, po
# Type: ADME, organism-based
# Design: dose 10 mg/kg, route oral
# setup.conditions: plasma
quantity.name: AUC (µM·h)
Lab book: enter the figure in µM·h, no units written.

# input Give its AUC value. Item: CNc1nc2[nH]c(-c3cccc(CNC(=O)COC)n3)cc2c2c1ncn2C
# output 89

* * *

# assay.protocol: Oral bioavailability in dog at 5 mg/kg
# Assay type: ADME, organism-based, Canis lupus familiaris
# setup.conditions: in vivo
quantity.name: bioavailability
Give the number first and the unit second.

# input Give its bioavailability value. Item: CNc1nc2[nH]c(-c3cccc(CNC(=O)COC)n3)cc2c2c1ncn2C
# output 72%

* * *

# assay.protocol: Volume of distribution at steady state in dog at 1 mg/kg, iv
# Assay type: ADME, organism-based, Canis lupus familiaris
# Set-up: dose 1 mg/kg, route intravenous
# setup.conditions: in vivo, read-out: Vdss
quantity.name: Vd (L/kg)
Lab book: enter the figure in L/kg, no units written.

# input Give its Vd value. Item: CNc1nc2[nH]c(-c3cccc(CNC(=O)COC)n3)cc2c2c1ncn2C
# output 0.6
